- Protocol Text: Drug level in Sprague-Dawley rat brain at 10 mg/kg, iv after 180 mins by LC-MS/MS analysis
- Format: ADME, organism-based
- Test Conditions: read-out: Drug uptake
Quantity Name: concentration at 3 h (ng/g)
Give bare numbers, in ng/g.

Illustrative cases are given below, each with its answer.
# Molecule, concentration at 3 h (ng/g)
rows = [
    ("Cn1nnc2c(C(N)=O)ncn2c1=O [TEMOZOLOMIDE]", 912),
    ("Cc1ccc2c(c1)c1c(n2CCNC(=O)c2ncn3c(=O)n(C)nnc23)CCN(C)C1", 101),
]

Please state, for each entry, its recorded concentration at 3 h.
1. Cn1nnc2c(C(=O)N3CCc4c(n(C5CC5)c5c(Cl)cc(Cl)cc45)C3)ncn2c1=O
2. CN1CCc2c(n(CCNC(=O)c3ncn4c(=O)n(C)nnc34)c3ccc(Cl)cc23)C1
3. Cc1ccc2c(c1)c1c(n2C)CCN(CCNC(=O)c2ncn3c(=O)n(C)nnc23)C1
4. Cc1ccc2[nH]c3c(c2c1)CN(CCNC(=O)c1ncn2c(=O)n(C)nnc12)CC3
5. Cc1ccc2c(c1)c1c(n2C)CN(C(=O)c2ncn3c(=O)n(C)nnc23)CC1

1. 3570
2. 47.5
3. 401
4. 32.7
5. 372

Attribution: ChEMBL document CHEMBL3853338
